FYI, the data here is from patent US20230210831A1.

- Test system: Salmonella typhimurium TA1537
- experimental_details: Ames test (reverse mutation test), TA1537
- Assay type: cell-based
- test_conditions: TA1537, +S9 mix, 1667 µg/plate
measurement_label: Number of revertant colonies

molecule: CC(C)(C)Oc1cc(F)cc(-c2cc(N)nn2C(F)(F)F)c1 [Metabolite 1]
endpoint_value: 0
--
molecule: CC(C)(C)Oc1cccc(-c2cc(N)nn2-c2ccccc2)c1 [Metabolite C]
endpoint_value: 4
--
molecule: Nc1cc(-c2cc(F)cc(OC(F)(F)F)c2)n(-c2cncc(C(F)(F)F)c2)n1 [Metabolite 5]
endpoint_value: 3
--
molecule: CC(C)(OCc1cc(F)cc(-c2cc(N)nn2-c2ccc(F)cc2)c1)C(F)(F)F [Metabolite D]
endpoint_value: 19

###

Number of revertant colonies WP2uvrA by entry:
- Tested on: Escherichia coli WP2uvrA
- experimental_details: Ames test (reverse mutation test), WP2uvrA
- Assay type: cell-based
- test_conditions: S9 Mix +; dose 6.9 µg/plate

compound: Cc1cccc(-n2nc(N)cc2-c2cccc(OC(F)(F)F)c2)c1 [Metabolite H]
Number of revertant colonies WP2uvrA: 25
//
compound: Nc1cc(-c2cccc(OC(F)(F)F)c2)n(-c2cccc(F)c2)n1 [Metabolite G]
Number of revertant colonies WP2uvrA: 39
//
compound: Nc1cc(-c2cccc(OCC(F)(F)F)c2)n(-c2ccc(F)cc2)n1 [Metabolite E]
Number of revertant colonies WP2uvrA: 32
//
compound: Cc1ccc(-n2nc(N)cc2-c2cccc(OCC(F)(F)F)c2)cc1 [Metabolite F]
Number of revertant colonies WP2uvrA: 20

###

- Test system: Salmonella typhimurium TA100
- experimental_details: Ames test (reverse mutation test), TA100
- Type: cell-based
- test_conditions: S9 Mix -; dose 21 µg/plate
Number of revertant colonies TA100 by entry:

molecule: CC(C)(OCc1cc(F)cc(-c2cc(N)nn2-c2ccc(F)cc2)c1)C(F)(F)F [Metabolite D]
tested_system: Salmonella typhimurium TA100
Number of revertant colonies TA100: 71

molecule: Cc1ccc(-n2nc(N)cc2-c2cccc(OCC(F)(F)F)c2)cc1 [Metabolite F]
tested_system: Salmonella typhimurium TA100
Number of revertant colonies TA100: 115

molecule: Nc1cc(-c2cccc(OCC(F)(F)F)c2)n(-c2ccc(F)cc2)n1 [Metabolite E]
tested_system: Salmonella typhimurium TA100
Number of revertant colonies TA100: 96

molecule: Nc1cc(-c2cccc(OC(F)(F)F)c2)n(-c2cccc(F)c2)n1 [Metabolite G]
tested_system: Salmonella typhimurium TA100
Number of revertant colonies TA100: 93

molecule: Cc1cccc(-n2nc(N)cc2-c2cccc(OC(F)(F)F)c2)c1 [Metabolite H]
tested_system: Salmonella typhimurium TA100
Number of revertant colonies TA100: 136

###

Number of revertant colonies by entry:
- System: Salmonella typhimurium TA1537
- experimental_details: Ames test (reverse mutation test), TA1537
- Format: cell-based
- test_conditions: TA1537, +S9 mix, 21 µg/plate
measurement_label: Number of revertant colonies

compound: CC(C)(C)Oc1cc(F)cc(-c2cc(N)nn2C(F)(F)F)c1 [Metabolite 1]
endpoint_value: 9
--
compound: CC(C)(C)Oc1cccc(-c2cc(N)nn2-c2ccccc2)c1 [Metabolite C]
endpoint_value: 7
--
compound: CC(C)(OCc1cc(F)cc(-c2cc(N)nn2-c2ccc(F)cc2)c1)C(F)(F)F [Metabolite D]
endpoint_value: 13
--
compound: Nc1cc(-c2cc(F)cc(OC(F)(F)F)c2)n(-c2cncc(C(F)(F)F)c2)n1 [Metabolite 5]
endpoint_value: 11
